Values were extracted from paper PMC11851451.

- Tested on: TTAA hairpin (ESI-MS, CD) (DNA, hairpin) CGTTAAGCTTTCTTAACG
- test-method-notes: circular dichroism titration
- conditions: Na+ 100 mM; 50 mM Tris-HCl, 1 mM EDTA, pH 7.4, 25 °C; DNA 5 μM
endpoint-label: binding

Below, each entry is followed by its recorded binding result.
Task: Form field: reported binding of `N=C(N)c1ccc2[nH]c(-c3ccc(-c4ccc(C(=N)N)o4)o3)nc2c1`
Output: yes

Task: Form field: reported binding of `N=C(N)c1ccc2[nH]c(-c3ccc(-c4ccc(C(=N)N)s4)s3)nc2c1`
Output: yes

Task: Form field: reported binding of `N=C(N)c1ccc2cc(-c3ccc(-c4ccc(C(=N)N)o4)o3)[nH]c2c1`
Output: yes

Task: Form field: reported binding of `N=C(N)c1ccc2cc(-c3ccc(-c4ccc(C(=N)N)s4)o3)[nH]c2c1`
Output: yes

Task: Form field: reported binding of `N=C(N)c1ccc2[nH]c(-c3ccc(-c4ccc(C(=N)N)s4)o3)nc2c1`
Output: yes

Here's the next entry for you.
Task: Form field: reported binding of `N=C(N)c1ccc2nc(-c3ccc(-c4ccc(C(=N)N)o4)s3)[nH]c2c1`
Output: yes
